Tested on: N-methyl-D-aspartate (NMDA) receptor, MK-801 binding site
Test name: radioligand displacement of [3H]-MK801
Measurement context: read-out: IC50 (μM) ^a; MK-801 channel site
Would you kindly list IC50 for each of these compounds?

Query string: Item under review: N[C@@]1(c2ccccc2Cl)CCC=CC1=O [3a, (R)-DHNK] . Reported IC50?
Result string: 59.7 µM

Query string: Item under review: N[C@@]1(c2ccccc2Cl)CC[C@@H](O)CC1=O [8a, (2R,5R)-HNK] . Reported IC50?
Result string: > 100 µM

Query string: Item under review: N[C@@]1(c2ccccc2Cl)CC[C@H](O)CC1=O [9a, (2R,5S)-HNK] . Reported IC50?
Result string: > 100 µM

Query string: Item under review: N[C@]1(c2ccccc2Cl)CCC[C@@H](O)C1=O [4b, (2S,6R)-HNK] . Reported IC50?
Result string: > 100 µM

Query string: Item under review: N[C@]1(c2ccccc2Cl)CC[C@@H](O)CC1=O [9b, (2S,5R)-HNK] . Reported IC50?
Result string: > 100 µM

* * *

Would you kindly list IC50 for each of these compounds?
Tested on: N-methyl-D-aspartate (NMDA) receptor, MK-801 binding site
Test name: radioligand displacement of [3H]-MK801
Measurement context: read-out: IC50 (μM) ^a; MK-801 channel site

Query string: Write down the reported IC50 of N[C@]1(c2ccccc2Cl)C[C@H](O)CCC1=O [10b, (2S,4R)-HNK] , test system: N-methyl-D-aspartate (NMDA) receptor, MK-801 binding site.
Result string: > 100 µM

Query string: Write down the reported IC50 of N[C@]1(c2ccccc2Cl)C[C@@H](O)CCC1=O [11b, (2S,4S)-HNK] , test system: N-methyl-D-aspartate (NMDA) receptor, MK-801 binding site.
Result string: > 100 µM

Query string: Write down the reported IC50 of CNC1(c2ccccc2Cl)CCCCC1=O (racemic) [compound 1, (R,S)-ketamine] , test system: N-methyl-D-aspartate (NMDA) receptor, MK-801 binding site.
Result string: 0.35 µM

Query string: Write down the reported IC50 of N[C@]1(c2ccccc2Cl)CCC=CC1=O [3b, (S)-DHNK] , test system: N-methyl-D-aspartate (NMDA) receptor, MK-801 binding site.
Result string: 42 µM

Query string: Write down the reported IC50 of N[C@]1(c2ccccc2Cl)CCC[C@H](O)C1=O [7b, (2S,6S)-HNK] , test system: N-methyl-D-aspartate (NMDA) receptor, MK-801 binding site.
Result string: 10.4 µM

* * *

Tested on: N-methyl-D-aspartate (NMDA) receptor, MK-801 binding site
Test name: radioligand displacement of [3H]-MK801
Measurement context: read-out: Ki (μM) ^a; MK-801 channel site
Would you kindly list Ki for each of these molecules?

Query string: Item under review: N[C@]1(c2ccccc2Cl)CC[C@H](O)CC1=O [8b, (2S,5S)-HNK] . Reported Ki?
Result string: > 100 µM

Query string: Item under review: N[C@@]1(c2ccccc2Cl)C[C@H](O)CCC1=O [11a, (2R,4R)-HNK] . Reported Ki?
Result string: > 100 µM

Query string: Item under review: N[C@@]1(c2ccccc2Cl)CCC[C@@H](O)C1=O [7a, (2R,6R)-HNK] . Reported Ki?
Result string: > 100 µM

Query string: Item under review: N[C@]1(c2ccccc2Cl)C[C@@H](O)CCC1=O [11b, (2S,4S)-HNK] . Reported Ki?
Result string: > 100 µM

Query string: Item under review: N[C@@]1(c2ccccc2Cl)CCC=CC1=O [3a, (R)-DHNK] . Reported Ki?
Result string: 42.1 µM

* * *

Tested on: N-methyl-D-aspartate (NMDA) receptor, MK-801 binding site
Test name: radioligand displacement of [3H]-MK801
Measurement context: read-out: Ki (μM) ^a; MK-801 channel site
Would you kindly list Ki for each of these compounds?

Query string: Write down the reported Ki of N[C@]1(c2ccccc2Cl)C[C@H](O)CCC1=O [10b, (2S,4R)-HNK] , test system: N-methyl-D-aspartate (NMDA) receptor, MK-801 binding site.
Result string: > 100 µM

Query string: Write down the reported Ki of N[C@@]1(c2ccccc2Cl)CC[C@@H](O)CC1=O , test system: N-methyl-D-aspartate (NMDA) receptor, MK-801 binding site.
Result string: > 100 µM

Query string: Write down the reported Ki of N[C@]1(c2ccccc2Cl)CCC=CC1=O [3b, (S)-DHNK] , test system: N-methyl-D-aspartate (NMDA) receptor, MK-801 binding site.
Result string: 29.7 µM

Query string: Write down the reported Ki of CNC1(c2ccccc2Cl)CCCCC1=O (racemic) [compound 1, (R,S)-ketamine] , test system: N-methyl-D-aspartate (NMDA) receptor, MK-801 binding site.
Result string: 0.25 µM

Query string: Write down the reported Ki of N[C@]1(c2ccccc2Cl)CC[C@@H](O)CC1=O , test system: N-methyl-D-aspartate (NMDA) receptor, MK-801 binding site.
Result string: > 100 µM

Query string: Write down the reported Ki of N[C@@]1(c2ccccc2Cl)CC[C@H](O)CC1=O , test system: N-methyl-D-aspartate (NMDA) receptor, MK-801 binding site.
Result string: > 100 µM

Query string: Write down the reported Ki of N[C@]1(c2ccccc2Cl)CCC[C@H](O)C1=O , test system: N-methyl-D-aspartate (NMDA) receptor, MK-801 binding site.
Result string: 7.34 µM

Query string: Write down the reported Ki of N[C@@]1(c2ccccc2Cl)C[C@@H](O)CCC1=O [10a, (2R,4S)-HNK] , test system: N-methyl-D-aspartate (NMDA) receptor, MK-801 binding site.
Result string: > 100 µM

Query string: Write down the reported Ki of N[C@@]1(c2ccccc2Cl)CCC[C@H](O)C1=O , test system: N-methyl-D-aspartate (NMDA) receptor, MK-801 binding site.
Result string: > 100 µM

Query string: Write down the reported Ki of N[C@]1(c2ccccc2Cl)CCC[C@@H](O)C1=O , test system: N-methyl-D-aspartate (NMDA) receptor, MK-801 binding site.
Result string: > 100 µM

These data points were gathered from paper PMC5641405.
